Reference source: patent US7098332B2

Below, each entry is listed alongside its reported IC50.
Tested on: PDGFR
Procedure text: PDGFR kinase HTRF assay
Format: biochemical
Condition info: 2.3 μM ATP
Method: To determine inhibition of KDR, FGFR, EGFR, and PDGFR activity, kinase assays were conducted using an HTRF (Homogeneous Time Resolved Fluorescence) assay. This assay is described in A. J. Kolb et. al., Drug Discovery Today, 1998, 3(7), p 333. Kinase activity assays were performed in 96-well polypropylene plates (Falcon) with a total volume of 90 μL in each well. […]

Sample COc1ccc(C2Cc3cnc(Nc4ccccc4)nc3N(c3ccccc3)C2=O)cc1 (stereo not shown) — what was its IC50? < 10 µM

// returns reported IC50 for input COc1ccc(C2Cc3cnc(Nc4ccccc4)nc3N(c3ccccc3)C2=O)cc1OC (stereo not shown) [Example 11c] < 10 µM

Name the recorded IC50 for COc1ccc(C2Cc3cnc(Nc4ccccc4)nc3N(CC(C)C)C2=O)cc1 (stereo not shown) [Example 13b] . < 10 µM

Form field: reported IC50 of COc1ccc(OC)c(C2Cc3cnc(Nc4ccccc4)nc3N(c3ccccc3)C2=O)c1 (stereo not shown) < 10 µM
